target: Kappa-type opioid receptor (Homo sapiens); assay: Inhibition of [3H]diprenorphine binding to human KOR expressed in CHO cells; format: cell-based
attribute_measured: Ki (nM)
Answers are plain numbers, in nM.

compound=CCN(C(C)=O)[C@H]1C[C@@H](C(=O)OC)[C@]2(C)CC[C@H]3C(=O)O[C@H](c4ccoc4)C[C@]3(C)[C@H]2C1=O value_unit=nM value=27.6
compound="CC(=O)O[C@H]1C[C@@H](CO)[C@]2(C)CC(=O)[C@H]3CO[C@H](c4ccoc4)CC3(C)[C@H]2C1=O (stereo partly drawn)" value_unit=nM value=1000
compound=CCC(=O)N[C@@H]1C[C@@H](C(=O)OC)[C@]2(C)CC[C@H]3C(=O)O[C@H](c4ccoc4)C[C@]3(C)[C@H]2C1=O value_unit=nM value=117

What does the data say about its Ki? Entry: CNC(=O)[C@@H]1C[C@H](OC(C)=O)C(=O)[C@H]2[C@@]1(C)CC[C@H]1C(=O)O[C@H](c3ccoc3)C[C@]21C 1390

###

molecular target: Kappa-type opioid receptor (Homo sapiens, UniProt P41145); assay: Enhancement of [35S]GTP-gamma-S binding to human KOR expressed in CHO cells relative to U50,488H; type: functional, cell-based
Sequence (P41145 whole entry): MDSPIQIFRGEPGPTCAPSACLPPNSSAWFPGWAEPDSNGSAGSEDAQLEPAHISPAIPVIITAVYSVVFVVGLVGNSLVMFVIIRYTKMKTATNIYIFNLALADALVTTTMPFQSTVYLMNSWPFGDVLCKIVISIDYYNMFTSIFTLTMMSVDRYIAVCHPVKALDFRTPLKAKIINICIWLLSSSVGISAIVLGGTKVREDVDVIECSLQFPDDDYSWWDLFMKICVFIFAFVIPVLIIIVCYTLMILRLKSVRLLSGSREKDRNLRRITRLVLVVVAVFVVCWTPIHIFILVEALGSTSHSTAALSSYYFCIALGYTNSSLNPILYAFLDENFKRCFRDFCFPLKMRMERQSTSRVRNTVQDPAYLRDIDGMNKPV
For each of the compounds below, state its Efficacy.
Answer as a quantity: numeral, then unit.

Some solved cases for reference:
smiles=COC(=O)[C@@H]1C[C@H](N(C)C(C)=O)C(=O)[C@H]2[C@@]1(C)CC[C@H]1C(=O)O[C@H](c3ccoc3)C[C@]21C attribute_measured=Efficacy value=103%
smiles=CCC(=O)N(CC)[C@H]1C[C@@H](C(=O)OC)[C@]2(C)CC[C@H]3C(=O)O[C@H](c4ccoc4)C[C@]3(C)[C@H]2C1=O attribute_measured=Efficacy value=100%
smiles=CCC(=O)N[C@H]1C[C@@H](C(=O)OC)[C@]2(C)CC[C@H]3C(=O)O[C@H](c4ccoc4)C[C@]3(C)[C@H]2C1=O attribute_measured=Efficacy value=109%
smiles=COC(=O)[C@@H]1C[C@@H](N)C(=O)[C@H]2[C@@]1(C)CC[C@H]1C(=O)O[C@H](c3ccoc3)C[C@]21C attribute_measured=Efficacy value=84%

Okay, here is my list. What is Efficacy for each of these?
1. CCN(C(C)=O)[C@H]1C[C@@H](C(=O)OC)[C@]2(C)CC[C@H]3C(=O)O[C@H](c4ccoc4)C[C@]3(C)[C@H]2C1=O
2. CN[C@H]1C[C@@H](C(=O)OC)[C@]2(C)CC[C@H]3C(=O)O[C@H](c4ccoc4)C[C@]3(C)[C@H]2C1=O
3. COC(=O)[C@@H]1C[C@@H](N(C)C(C)=O)C(=O)[C@H]2[C@@]1(C)CC[C@H]1C(=O)O[C@H](c3ccoc3)C[C@]21C

["104%", "82%", "106%"]

###

For each of the molecules below, state its pEC50.
molecular target: Kappa-type opioid receptor (Homo sapiens, UniProt P41145); test: Enhancement of [35S]GTP-gamma-S binding to human KOR expressed in CHO cells
Numbers only, as −log10 of the molar value.

Some solved cases for reference:
smiles=CCN[C@H]1C[C@@H](C(=O)OC)[C@]2(C)CC[C@H]3C(=O)O[C@H](c4ccoc4)C[C@]3(C)[C@H]2C1=O attribute_measured=pEC50 value=7.14
smiles=CCC(=O)N(C)[C@H]1C[C@@H](C(=O)OC)[C@]2(C)CC[C@H]3C(=O)O[C@H](c4ccoc4)C[C@]3(C)[C@H]2C1=O attribute_measured=pEC50 value=9.12
smiles=CN[C@H]1C[C@@H](C(=O)OC)[C@]2(C)CC[C@H]3C(=O)O[C@H](c4ccoc4)C[C@]3(C)[C@H]2C1=O attribute_measured=pEC50 value=6.08
smiles=COC(=O)[C@@H]1C[C@@H](N)C(=O)[C@H]2[C@@]1(C)CC[C@H]1C(=O)O[C@H](c3ccoc3)C[C@]21C attribute_measured=pEC50 value=5.86
smiles=COC(=O)[C@@H]1C[C@H](N(C)C)C(=O)[C@H]2[C@@]1(C)CC[C@H]1C(=O)O[C@H](c3ccoc3)C[C@]21C attribute_measured=pEC50 value=6.62
smiles=CCC(=O)N(CC)[C@@H]1C[C@@H](C(=O)OC)[C@]2(C)CC[C@H]3C(=O)O[C@H](c4ccoc4)C[C@]3(C)[C@H]2C1=O attribute_measured=pEC50 value=6.07
smiles=COC(=O)[C@@H]1C[C@H](NC(C)=O)C(=O)[C@H]2[C@@]1(C)CC[C@H]1C(=O)O[C@H](c3ccoc3)C[C@]21C attribute_measured=pEC50 value=6.73
smiles=COC(=O)[C@@H]1C[C@@H](NC(C)=O)C(=O)[C@H]2[C@@]1(C)CC[C@H]1C(=O)O[C@H](c3ccoc3)C[C@]21C attribute_measured=pEC50 value=6.47

Okay, here is my list. What is pEC50 for each of these?
1. COC(=O)[C@@H]1C[C@H](N(C)C(C)=O)C(=O)[C@H]2[C@@]1(C)CC[C@H]1C(=O)O[C@H](c3ccoc3)C[C@]21C
2. CCC(=O)N[C@@H]1C[C@@H](C(=O)OC)[C@]2(C)CC[C@H]3C(=O)O[C@H](c4ccoc4)C[C@]3(C)[C@H]2C1=O
3. COC(=O)[C@@H]1C[C@H](NC(C)C)C(=O)[C@H]2[C@@]1(C)CC[C@H]1C(=O)O[C@H](c3ccoc3)C[C@]21C

1. 8.62
2. 6.14
3. 7.72
